Can you tell me cytotoxicity at 10 µM for the items I'm about to list?
assay: Toxicity liver stage against HepG2, at 10uM; assay type: cell-based; design: test concentration 10 uM, cell line HepG2-A16-CD81EGFP; details: human, HepG2-A16-CD81EGFP cells; read-out: INHIBITION
Answer with a number only, understood to be in %.

Query cytotoxicity at 10 µM for Cc1ccc(C(C)NC(=O)N2CCN(C(=O)CC(F)(F)F)CC2)o1 (stereo unspecified)
43.3

Look up and state reported cytotoxicity at 10 µM for `O=C(Cc1cnccn1)N1C[C@@H]2CC[C@H]1CN(Cc1cscn1)C2`
1.88

Give recorded cytotoxicity at 10 µM. O=C(c1ccc[nH]1)N1CCCC1c1nc(-c2ccccc2)n[nH]1 (stereo unspecified)
2.57

Input `CN(Cc1csc(-c2ccccc2)n1)C(=O)CCn1ccccc1=O` , output reported cytotoxicity at 10 µM.
-2.84

Could you please provide reported cytotoxicity at 10 µM for Cc1nc(CN(C)CC2CCCN2c2cccnn2)nc2ccccc12 (stereo unspecified) ? Thanks!
-6.31

Recall and state the measured cytotoxicity at 10 µM for `CCOCc1nn(CC2CC2)c2c1CN(C(=O)c1ccno1)CC2` .
1.99

---

test: Toxicity liver stage against HepG2, at 10uM; format: cell-based; design: test concentration 10 uM, cell line HepG2-A16-CD81EGFP; conditions: human, HepG2-A16-CD81EGFP cells; read-out: INHIBITION
metric_name: cytotoxicity at 10 µM (%)
Dear colleague, please return just the value in %, with no unit written.

Read off the recorded cytotoxicity at 10 µM for `Cc1cc(C[C@@H]2COC[C@H]2NCc2ccc(Br)s2)on1`
3.6

Supply cytotoxicity at 10 µM value. Item: OC(CN1CCC(CNCc2ccccn2)CC1)c1ccccc1 (stereo unspecified)
-2.15

Consider the compound `CNS(=O)(=O)c1cccc(CNC(=O)c2cnn(C)c2C)c1` and give its recorded cytotoxicity at 10 µM.
0.857

Complete the entry with cytotoxicity at 10 µM for O=C(c1ccc(=O)[nH]n1)N1CCCC(O)(CN2CCC(F)(F)CC2)CC1 (stereo unspecified)
-8.71

Given the compound `CC(C)(CNC(=O)Nc1ccc(S(=O)(=O)C(F)F)cc1)N1CCOCC1` , write its reported cytotoxicity at 10 µM.
4.44

Using known records, supply cytotoxicity at 10 µM for `COC(=O)c1ccc(Cl)c(S(=O)(=O)Nc2ccc(F)c(C(N)=O)c2)c1`
3.68

Note down cytotoxicity at 10 µM recorded for Cn1cccc1C1CCCCCN1C(=O)c1ccc(NC2CC2)nc1 (stereo unspecified)
-9.24

Respond only with cytotoxicity at 10 µM recorded for `O=C(Cc1ccsc1)N1CCC(c2n[nH]c3nccnc23)CC1`
-10.6

Look up and state reported cytotoxicity at 10 µM for `CNC(=O)c1cccc(NC(=O)Cn2nc(-c3cccs3)oc2=O)c1`
-8.28

Please report cytotoxicity at 10 µM for the following compound: `CC1(C)O[C@@](C)([C@H]2CC3(CCN(c4ncccn4)CC3)CO2)CC[C@@H]1O`
4.98

// fetch cytotoxicity at 10 µM given entry `CN(C)C(=O)N1CCn2nc(CNC(=O)CCc3ccccn3)cc2C1`
-3.32

---

experiment: Toxicity liver stage against HepG2, at 10uM; type: cell-based; parameters: test concentration 10 uM, cell line HepG2-A16-CD81EGFP; details: human, HepG2-A16-CD81EGFP cells; read-out: INHIBITION
metric_name: cytotoxicity at 10 µM

Return cytotoxicity at 10 µM (reported value) for this molecule: CC(NC(=O)NCCCn1ccnc1)c1nncn1C (centres undefined)
0.277%

Consider the molecule `Cc1ccc2c(c1)[C@@H](CC(=O)N(C)C)CCO2` . State its measured cytotoxicity at 10 µM.
-3.78%

Give the measured cytotoxicity at 10 µM for CCc1cc(C(F)(F)F)c2c(C3CCCN(C(=O)COC)C3)noc2n1 (centres undefined)
-17.6%

Return reported cytotoxicity at 10 µM. Input molecule: `Cc1nn(C)c(N2CCOCC2)c1CNC1CCN(C2CC2)CC1`
-3.96%

Output cytotoxicity at 10 µM of `O=C(c1cncnc1)N1Cc2ccccc2OC2(CCOCC2)C1`
-8.46%

Give the reported cytotoxicity at 10 µM for this molecule. `CC(C)n1c(=O)[nH]c2cn(-c3ccc(Br)cc3)c(=O)n21`
0.843%

Answer with reported cytotoxicity at 10 µM of COc1ncc(CN2CCC3(CCCN(CC4CCCCC4)C3)C2)cn1 (centres undefined)
-6.8%

Return cytotoxicity at 10 µM (reported value) for this molecule: `C[C@]1(O)CCN(Cc2ncccc2F)C[C@@H]1Oc1ccccc1`
-21.4%

Respond only with cytotoxicity at 10 µM recorded for CC(C(=O)N1CCOCC1)n1nc(-c2cccs2)cc(N)c1=O (centres undefined)
8.74%

Entry CCc1nnc2n1CCN(C(C(=O)N(CC)CC)c1ccccc1)C2 (centres undefined) needs its cytotoxicity at 10 µM filled in; supply it.
-0.77%

Quick one: give measured cytotoxicity at 10 µM for `O=C(c1cc2ccccc2s1)N1CCC(C(=O)O)(n2cccn2)CC1`
11.3%

Complete the entry with cytotoxicity at 10 µM for CC1CCN(c2nc3cn(C4CCS(=O)(=O)C4)c(=O)c-3c[nH]2)CC1 (centres undefined)
-14.2%

Annotate the molecule `Cc1cnccc1N1CCN(C(=O)CCCN2CCCCC2)CC1` with its measured cytotoxicity at 10 µM.
0.0879%

Answer with the recorded cytotoxicity at 10 µM of `O=C(Cc1ccc(F)cc1)NCC1CCN(Cc2ccsc2)CC1` only.
-7.15%

For `Cc1cc(NC(N)=O)ccc1C(=O)N(C)C` , write its cytotoxicity at 10 µM.
12.2%

Output measured cytotoxicity at 10 µM for this item: OC1COCCN(Cc2cc(-c3ccccc3OC(F)(F)F)no2)C1 (centres undefined)
-12.7%

Supply recorded cytotoxicity at 10 µM for `CN(Cc1nc2c(cnn2C)c(=O)[nH]1)Cc1ccco1` here.
-8.11%

Write down cytotoxicity at 10 µM measured for item `CC[C@H]1N(Cc2ccc(OC)cc2)CCC[C@]12CCC(=O)N2C`
-5.6%

Return cytotoxicity at 10 µM for the following molecule: COc1ccc(CN2CCC3(CC(Nc4ccncn4)C3)C2)c(OC)c1 (centres undefined)
2.43%

Given `Cc1csc(C2(NC(=O)NCCN3CCOCC3)CCCC2)n1` , respond with its cytotoxicity at 10 µM.
-3.55%

Assign cytotoxicity at 10 µM to the following record: `Cc1noc(C)c1CCC(=O)N1CCCN(Cc2cccs2)CC1`
-3.39%

Give a short answer stating reported cytotoxicity at 10 µM for O=C(CN1CCOC(c2ccccc2C(F)(F)F)C1)NC1CC1 (centres undefined) .
3.02%

Give cytotoxicity at 10 µM for the following molecule: `Cc1nn(C)cc1C(=O)N1CCC(C(=O)c2nc3ccccc3s2)CC1`
8.12%

Consider the molecule `COC(=O)c1c(Cl)c(C2CC2)nc2onc(C)c12` . State its measured cytotoxicity at 10 µM.
10.1%

---

experiment: Toxicity liver stage against HepG2, at 10uM; type: cell-based; design: test concentration 10 uM, cell line HepG2-A16-CD81EGFP; conditions: human, HepG2-A16-CD81EGFP cells; read-out: INHIBITION
Kindly state cytotoxicity at 10 µM for each of the entries shown.
Just the number in %, nothing appended.

Note cytotoxicity at 10 µM for the molecule shown: `Cc1cc(C(=O)NCc2c(C)nn(C)c2C)nc(N2CCOCC2)n1`
0.0436

Indicate the recorded cytotoxicity at 10 µM value for this molecule: `Cc1c2nnn(CC(=O)N(C)C)c(=O)c2nn1C`
-4.26

Answer with the recorded cytotoxicity at 10 µM for the molecule listed here: `Cc1ccc2c(n1)N(CCN(C)C)CCN(C(=O)c1ccco1)C2`
-65.8

// Input: CC(C)(C)c1cc(NC(=O)CNC2CCc3ncnn3C2)on1 (stereo unspecified) . Output its cytotoxicity at 10 µM only.
9.03

Report measured cytotoxicity at 10 µM; entry is `CN(C(=O)c1ccccc1F)[C@@H]1CC[C@@H](O)[C@@H]1O`
-6.11

Return reported cytotoxicity at 10 µM. Input molecule: `O=C(NCCCN1CCOCC1)c1ccc(-n2ccc3ccccc32)s1`
-3.42

---

assay: Toxicity liver stage against HepG2, at 10uM; type: cell-based; parameters: test concentration 10 uM, cell line HepG2-A16-CD81EGFP; settings: human, HepG2-A16-CD81EGFP cells; read-out: INHIBITION
Provide the reported cytotoxicity at 10 µM of each item.
Quick note: give the figure in %, leave out the unit.

Item Cc1occc1C(=O)N1CCC2(CCCN(c3ncc(F)cn3)C2)C1 (stereo unspecified) : provide cytotoxicity at 10 µM
-102

Quick one: give measured cytotoxicity at 10 µM for `CC(C)CN1CCC2(C1)CN(c1ncccn1)C2`
4.73

Answer with the recorded cytotoxicity at 10 µM for the molecule listed here: `Cc1cc(C(F)(F)F)nc(CNC(=O)CCn2cccn2)n1`
1.7

Find the measured cytotoxicity at 10 µM of `O=C(Nc1cnccn1)[C@@H]1C[C@H]2OCC[C@H]2N(c2ncc(F)cn2)C1` and report it.
8.12

Could you please provide reported cytotoxicity at 10 µM for `OC1CCN(Cc2cc3c(cc2Br)OCCO3)CC1` ? Thanks!
7.73

Identify cytotoxicity at 10 µM associated with the molecule `O=S(=O)(C1CC1)N1CCC[C@]2(C[C@@H](Oc3ccccn3)CO2)C1`
-144

Give recorded cytotoxicity at 10 µM. `O=C(c1cnccn1)N1CCCC2(CCN(Cc3ccsc3)CC2)C1`
1.55

Could you please provide reported cytotoxicity at 10 µM for `Cc1nc(C)c(CC(=O)N2C[C@H]3CC[C@@H](C2)N(CC2CC2)C3)s1` ? Thanks!
-1.59

Specify cytotoxicity at 10 µM for CCN1CCOCC2(C1)CN(C(=O)c1c(C)noc1C)CCO2 (stereo unspecified) and stop.
13.8

Supply reported cytotoxicity at 10 µM belonging to this molecule: FC1(F)CCN(c2ccccc2)CC12CCN(c1ncccn1)C2 (stereo unspecified)
3.71

Provide only the value of recorded cytotoxicity at 10 µM for `CCc1c(C)sc2c1c(N)nc(=O)n2CCN(C)C`
3.85
